Recorded values, source PubChem BioAssay (Tox21).

biological target: Nuclear receptor subfamily 1 group I member 2 (Homo sapiens); test: CYP3A4 induction through human pregnane X receptor (PXR) by small molecules, qHTS assay (AID 1346984); conditions: DPX-2 HepG2 PXR, CYP3A4-luciferin luminescence, 24 h; series mostly up to 46.1 µM; further: nearly all actives have a fitted effect of over 40% in size
Inconclusive results are not listed. The source made the active and inactive calls. The call rests on the fitted dose curve; in most records, active means well fitted activation curve with a large enough effect in the repeat runs; inconclusive means weak or mixed curves; inactive means no such curve, though single readings can be large or run the other way.
Reply using exactly one outcome from TRUE = active, FALSE = inactive

- CCCCC1C(=O)N(c2ccccc2)N(c2ccc(O)cc2)C1=O (centres undefined): FALSE
- CCOc1cc(N)c(Cl)cc1C(=O)NCC1CN(Cc2ccc(F)cc2)CCO1 (centres undefined): FALSE
- COc1cc2[nH]c(=O)[nH]c(=O)c2cc1OC: FALSE
- O=C(O)Cc1ccc(-c2ccccc2)cc1: FALSE
- CCCCCCCCCCCC(=O)[O][Sn]([CH2]CCC)([CH2]CCC)[O]C(=O)CCCCCCCCCCC: FALSE
- O=[N+]([O-])c1cccc(S(=O)(=O)NCCNS(=O)(=O)c2cccc([N+](=O)[O-])c2)c1: TRUE
- CC(=O)OCC(=O)[C@H]1CC[C@H]2[C@@H]3CCC4=CC(=O)CC[C@]4(C)[C@H]3CC[C@]12C: FALSE
- COCc1c(C(C)C)nc(C(C)C)c(/C=C/[C@@H](O)C[C@@H](O)CC(=O)O)c1-c1ccc(F)cc1: TRUE

Next compound, please.
For CC1CC(O)CC(C)(C)C1 (centres undefined) , which call appears in the assay record?
FALSE

====

target: Progesterone receptor (Homo sapiens); assay: qHTS assay to identify small molecule agonists of the progesterone receptor (PR) signaling pathway (AID 1346784); conditions: PR-UAS-bla HEK293T, beta-lactamase FRET ratio, 16 h; series mostly up to 92.4 µM; further: nearly all actives have a fitted effect of over 30% in size
Records with an inconclusive call do not appear. Active and inactive are the calls of the source. The call rests on the fitted dose curve.
Write down the outcome that applies. Available outcomes: active, inactive

- CC[C@@H]([C@H](C)O)n1ncn(-c2ccc(N3CCN(c4ccc(OC[C@@H]5CO[C@@](Cn6cncn6)(c6ccc(F)cc6F)C5)cc4)CC3)cc2)c1=O: inactive
- CCN(CC)CCNC(=O)c1ccc(NC(C)=O)cc1: inactive
- CC#N: inactive
- CCCCCCCC/C=C\CCCCCCCC(=O)OC: inactive
- O=C(/C=C/c1ccccc1)OCCCc1ccccc1: inactive

Write down the call the test reported for this molecule. Item: CC1CC(=O)NN=C1c1ccc(NCC(C)(C)NCC(O)COc2cc(Cl)ccc2C#N)cc1 (stereo not given)
inactive

Hi, do you know how `CCCCCCCCCCCC(=O)[O][Sn]([CH2]CCC)([CH2]CCC)[O]C(=O)CCCCCCCCCCC` came out in this test?
inactive

# fetch the recorded call for `CC(=O)[C@H]1CC[C@H]2[C@@H]3C[C@H](C)C4=CC(=O)CC[C@]4(C)[C@H]3[C@@H](O)C[C@]12C` here
active

// outcome(item) with item = `COC(=O)CC(=O)C(C)(C)C`
inactive

Can you look up the reported call for `O=C(Nc1ccccc1)Nc1ccccc1` for me?
inactive

Please let me know the test result on file for CC(C)OCC1CO1 (stereo not given) .
inactive

What did the test return for `CC(=O)OCC(=O)[C@@]12OC(C)(C)O[C@@H]1C[C@H]1[C@@H]3C[C@H](F)C4=CC(=O)C=C[C@]4(C)[C@@]3(F)[C@@H](O)C[C@@]12C` ?
active

Tell me the assay call for `C[C@]12CCC(=O)C=C1C=C[C@@H]1[C@@H]2CC[C@@]2(C)[C@H]1CC[C@@]21CCC(=O)O1` please.
active
